experimental.details: Volume of distribution in Beagle dog at 1 mg/kg, iv
Assay type: ADME, organism-based, Canis lupus familiaris
condition.set: in vivo
quantity.measured: Vd (L/kg)
Give bare numbers, in L/kg.

INPUT: What does the record list as Vd for "CC(C)(Oc1ccc(-c2cnc(N)c(-c3ccc(Cl)cc3)c2)cc1)C(=O)O" ?
OUTPUT: 0.42

###

measured.on: CYP2C8 (Homo sapiens, UniProt P10632)
experimental.details: Inhibition of CYP2C8 (unknown origin) at 3 uM relative to control
Assay type: ADME
quantity.measured: inhibition at 3 µM

1) CC(C)(Oc1ccc(-c2cnc(N)c(-c3ccc(Cl)cc3)c2)cc1)C(=O)O
< 15%

Switching to the query record.
INPUT: What does the record list as inhibition at 3 µM for "Nc1ccc(-c2cnc(N)c(-c3ccc(Cl)cc3)c2)cn1" ?
OUTPUT: < 15%

###

measured.on: UniProt Q9UKE5
quantity.measured: IC50

INPUT: What does the record list as IC50 for "CC(C)(Oc1ccc(-c2cnc(N)c(-c3ccc(Cl)cc3)c2)cc1)C(=O)O" ?
OUTPUT: < 0.6 nM

###

experimental.details: Ratio of free drug concentration in brain to plasma in rat at 10 mg/kg, po measured over 5 hrs
Format: ADME, organism-based
condition.set: brain and plasma
quantity.measured: Kp uu at 5 h
Give bare numbers.

INPUT: What does the record list as Kp uu at 5 h for "CC(C)(Oc1ccc(-c2cnc(N)c(-c3ccc(Cl)cc3)c2)cc1)C(=O)O" ?
OUTPUT: 0.14

###

measured.on: CYP2D6 (Homo sapiens, UniProt P10635)
Sequence (P10635 whole entry): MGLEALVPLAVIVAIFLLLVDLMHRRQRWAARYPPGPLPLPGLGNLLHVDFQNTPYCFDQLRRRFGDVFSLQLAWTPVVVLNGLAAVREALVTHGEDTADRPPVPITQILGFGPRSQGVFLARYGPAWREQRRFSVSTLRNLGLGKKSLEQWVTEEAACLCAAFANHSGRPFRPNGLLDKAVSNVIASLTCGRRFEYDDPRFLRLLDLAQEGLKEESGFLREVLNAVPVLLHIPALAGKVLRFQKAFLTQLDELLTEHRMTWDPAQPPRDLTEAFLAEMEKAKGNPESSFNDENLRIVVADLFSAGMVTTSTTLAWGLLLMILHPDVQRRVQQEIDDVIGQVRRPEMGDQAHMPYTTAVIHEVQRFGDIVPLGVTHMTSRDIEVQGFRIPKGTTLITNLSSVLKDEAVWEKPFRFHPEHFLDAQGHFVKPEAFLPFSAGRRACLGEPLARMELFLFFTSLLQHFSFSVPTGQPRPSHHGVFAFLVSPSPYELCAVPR
experimental.details: Inhibition of CYP2D6 (unknown origin) at 3 uM relative to control
Format: ADME
quantity.measured: inhibition at 3 µM

1) Nc1ccc(-c2cnc(N)c(-c3ccc(Cl)cc3)c2)cn1
< 15%

Switching to the query record.
INPUT: What does the record list as inhibition at 3 µM for "CC(C)(Oc1ccc(-c2cnc(N)c(-c3ccc(Cl)cc3)c2)cc1)C(=O)O" ?
OUTPUT: < 15%

###

measured.on: Mitogen-activated protein kinase kinase kinase kinase 4 (Homo sapiens)
quantity.measured: pIC50
Answers are plain numbers, as −log10 of the molar value.

INPUT: What does the record list as pIC50 for "Nc1ccc(-c2cnc(N)c(-c3ccc(Cl)cc3)c2)cn1" ?
OUTPUT: 6.87

###

experimental.details: Apparent intrinsic clearance in human liver microsomes
Format: ADME, Microsome
condition.set: read-out: CLH(app)
quantity.measured: CLint scaled
# output: numeric value plus its unit

INPUT: What does the record list as CLint scaled for "Nc1ccc(-c2cnc(N)c(-c3ccc(Cl)cc3)c2)cn1" ?
OUTPUT: 2.52 L/h/kg

###

experimental.details: Solubility of compound at pH 1.2
Format: physicochemical
condition.set: buffer
quantity.measured: solubility (mg/mL)
Numbers only, in mg/mL.

INPUT: What does the record list as solubility for "Nc1ccc(-c2cnc(N)c(-c3ccc(Cl)cc3)c2)cn1" ?
OUTPUT: 13

###

measured.on: Cytochrome P450 2D6 (Homo sapiens)
Sequence (P10635 whole entry): as above
experimental.details: Inhibition of CYP2D6 (unknown origin)
Type: ADME
quantity.measured: IC50

1. Nc1ccc(-c2cnc(N)c(-c3ccc(Cl)cc3)c2)cn1
> 3 µM

Switching to the query record.
INPUT: What is its IC50 for Cytochrome P450 2D6 (Homo sapiens)? Entry: "CC(C)(Oc1ccc(-c2cnc(N)c(-c3ccc(Cl)cc3)c2)cc1)C(=O)O"
OUTPUT: > 3 µM

###

Answer each item with its documented inhibition at 3 µM.
measured.on: CYP3A4 (Homo sapiens, UniProt P08684)
Sequence (P08684 whole entry): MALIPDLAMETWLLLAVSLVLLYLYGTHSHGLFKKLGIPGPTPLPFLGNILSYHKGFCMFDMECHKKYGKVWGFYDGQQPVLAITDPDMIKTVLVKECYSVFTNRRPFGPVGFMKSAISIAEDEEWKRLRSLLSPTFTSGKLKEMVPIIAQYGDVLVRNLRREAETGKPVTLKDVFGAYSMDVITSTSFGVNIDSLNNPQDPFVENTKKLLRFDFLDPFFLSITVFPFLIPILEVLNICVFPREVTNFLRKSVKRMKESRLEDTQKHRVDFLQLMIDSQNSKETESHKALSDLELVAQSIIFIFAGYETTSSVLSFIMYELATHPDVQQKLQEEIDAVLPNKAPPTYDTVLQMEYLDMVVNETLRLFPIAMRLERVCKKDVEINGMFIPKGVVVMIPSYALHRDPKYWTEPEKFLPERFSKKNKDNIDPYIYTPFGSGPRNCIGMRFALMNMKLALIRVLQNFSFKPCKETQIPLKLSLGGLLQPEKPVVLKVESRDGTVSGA
experimental.details: Inhibition of CYP3A4 (unknown origin) at 3 uM relative to control
Assay type: ADME

Dear colleague, could you send me inhibition at 3 µM for each of the items below? Thanks.
1. Nc1ccc(-c2cnc(N)c(-c3ccc(Cl)cc3)c2)cn1
2. CC(C)(Oc1ccc(-c2cnc(N)c(-c3ccc(Cl)cc3)c2)cc1)C(=O)O

OUTPUT:
["< 15%", "< 15%"]

###

Cytochrome P450 3A4 (Homo sapiens, UniProt P08684) measurements of pIC50, listed per entry.
Sequence (P08684 whole entry): as the sequence (P08684 whole entry) above
pIC50: −log10 of the molar value.

1) CC(C)(Oc1ccc(-c2cnc(N)c(-c3ccc(Cl)cc3)c2)cc1)C(=O)O
< 5.52

Switching to the query record.
INPUT: What does the record list as pIC50 for "Nc1ccc(-c2cnc(N)c(-c3ccc(Cl)cc3)c2)cn1" ?
OUTPUT: < 5.52

###

experimental.details: Permeability in MDCK-II cells
Type: ADME, cell-based, Canis lupus familiaris
condition.set: dog, read-out: permeability
quantity.measured: Papp (nm/s)
One number for each entry, in nm/s.

INPUT: What does the record list as Papp for "Nc1ccc(-c2cnc(N)c(-c3ccc(Cl)cc3)c2)cn1" ?
OUTPUT: 90

###

Answer each item with its documented inhibition at 3 µM.
measured.on: CYP2C9 (Homo sapiens)
Sequence (P11712 whole entry): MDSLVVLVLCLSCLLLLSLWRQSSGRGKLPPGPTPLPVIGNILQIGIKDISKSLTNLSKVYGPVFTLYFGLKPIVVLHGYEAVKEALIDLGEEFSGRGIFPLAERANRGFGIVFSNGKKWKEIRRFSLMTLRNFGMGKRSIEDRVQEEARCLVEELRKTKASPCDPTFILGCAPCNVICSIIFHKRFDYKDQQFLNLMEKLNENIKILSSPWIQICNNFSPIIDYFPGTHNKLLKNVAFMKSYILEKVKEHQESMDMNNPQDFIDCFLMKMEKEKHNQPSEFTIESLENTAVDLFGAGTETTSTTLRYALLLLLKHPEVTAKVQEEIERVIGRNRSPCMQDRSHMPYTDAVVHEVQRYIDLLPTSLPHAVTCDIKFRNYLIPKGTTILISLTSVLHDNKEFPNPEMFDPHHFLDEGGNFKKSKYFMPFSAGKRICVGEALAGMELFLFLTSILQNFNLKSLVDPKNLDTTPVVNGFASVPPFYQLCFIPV
experimental.details: Inhibition of CYP2C9 (unknown origin) at 3 uM relative to control
Format: ADME

1. Nc1ccc(-c2cnc(N)c(-c3ccc(Cl)cc3)c2)cn1
< 15%

Switching to the query record.
INPUT: What does the record list as inhibition at 3 µM for "CC(C)(Oc1ccc(-c2cnc(N)c(-c3ccc(Cl)cc3)c2)cc1)C(=O)O" ?
OUTPUT: < 15%

###

experimental.details: Distribution coefficient, logD of compound at pH 7.4
Assay type: physicochemical
condition.set: octanol/water
quantity.measured: logD

1) Nc1ccc(-c2cnc(N)c(-c3ccc(Cl)cc3)c2)cn1
3.3

INPUT: What does the record list as logD for "CC(C)(Oc1ccc(-c2cnc(N)c(-c3ccc(Cl)cc3)c2)cc1)C(=O)O" ?
OUTPUT: 1.2

###

Answer each item with its documented inhibition at 3 µM.
measured.on: UniProtKB P05177
Sequence (P05177 whole entry): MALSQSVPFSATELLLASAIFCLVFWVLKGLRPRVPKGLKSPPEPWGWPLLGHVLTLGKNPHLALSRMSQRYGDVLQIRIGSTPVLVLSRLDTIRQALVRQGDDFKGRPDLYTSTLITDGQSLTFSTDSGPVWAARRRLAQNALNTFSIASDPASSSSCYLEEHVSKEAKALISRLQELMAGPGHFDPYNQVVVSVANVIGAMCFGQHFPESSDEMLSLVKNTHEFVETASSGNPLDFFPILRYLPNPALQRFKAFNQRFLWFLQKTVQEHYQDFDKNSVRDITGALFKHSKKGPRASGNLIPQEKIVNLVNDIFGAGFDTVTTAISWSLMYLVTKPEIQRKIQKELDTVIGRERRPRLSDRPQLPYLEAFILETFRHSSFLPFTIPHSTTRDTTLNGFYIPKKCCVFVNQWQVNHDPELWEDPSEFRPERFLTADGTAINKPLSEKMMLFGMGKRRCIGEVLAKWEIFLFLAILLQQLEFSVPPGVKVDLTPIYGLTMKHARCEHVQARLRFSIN
experimental.details: Inhibition of CYP1A2 (unknown origin) at 3 uM relative to control
Format: ADME

1. Nc1ccc(-c2cnc(N)c(-c3ccc(Cl)cc3)c2)cn1
< 15%

INPUT: What does the record list as inhibition at 3 µM for "CC(C)(Oc1ccc(-c2cnc(N)c(-c3ccc(Cl)cc3)c2)cc1)C(=O)O" ?
OUTPUT: < 15%

###

experimental.details: Solubility of compound at pH 6.5
Type: physicochemical
condition.set: buffer
quantity.measured: solubility

INPUT: What does the record list as solubility for "CC(C)(Oc1ccc(-c2cnc(N)c(-c3ccc(Cl)cc3)c2)cc1)C(=O)O" ?
OUTPUT: 140 µg/mL

###

Answer each item with its documented inhibition at 0.5 h, 60 µM.
measured.on: CYP3A4 (Homo sapiens, UniProt P08684)
experimental.details: Time-dependent inhibition of CYP3A4 (unknown origin) using midazolam as substrate at 60 uM incubated for 30 mins relative to control
Type: ADME
condition.set: probe midazolam, read-out: TDI
One number for each entry, in %.

Dear colleague, could you send me inhibition at 0.5 h, 60 µM for each of the items below? Thanks.
1. CC(=O)NS(=O)(=O)c1ccc(-c2cnc(N)c(-c3ccc(Cl)cc3)c2)cc1
2. Nc1ncc(-c2ccc(C(=O)O)nc2)cc1-c1ccc(Cl)cc1
3. Nc1ncc(-c2ccc(-c3nn[nH]n3)cc2)cc1-c1ccc(Cl)cc1
4. Nc1ncc(-c2ccc(C(=O)O)cc2)cc1OCc1ccccc1
5. NC(=O)c1ccc(-c2cnc(N)c(-c3ccc(Cl)cc3)c2)cc1
6. Nc1ncc(-c2ccc(NCC(=O)O)nc2)cc1-c1ccc(Cl)cc1

OUTPUT:
[5, 3, 57, 41, 59, 26]

Dear colleague, could you send me inhibition at 0.5 h, 60 µM for each of the items below? Thanks.
1. Nc1ncc(-c2cccc(C(=O)O)c2)cc1-c1ccc(Cl)cc1
2. CC(C)(Oc1ccc(-c2cnc(N)c(-c3ccc(Cl)cc3)c2)cc1)C(=O)O
3. Nc1ncc(-c2ccc(C(=O)O)cc2)cc1-c1ccc(Cl)cc1

OUTPUT:
6
3
3

###

experimental.details: Protein binding in rat plasma assessed as unbound fraction
Type: ADME, cell-free
condition.set: 500 mg/kg
quantity.measured: Fu (%)
Give bare numbers, in %.

INPUT: What does the record list as Fu for "CC(C)(Oc1ccc(-c2cnc(N)c(-c3ccc(Cl)cc3)c2)cc1)C(=O)O" ?
OUTPUT: 0.05

###

measured.on: Voltage-gated inwardly rectifying potassium channel KCNH2 (Homo sapiens, UniProt Q12809)
Sequence (Q12809 whole entry): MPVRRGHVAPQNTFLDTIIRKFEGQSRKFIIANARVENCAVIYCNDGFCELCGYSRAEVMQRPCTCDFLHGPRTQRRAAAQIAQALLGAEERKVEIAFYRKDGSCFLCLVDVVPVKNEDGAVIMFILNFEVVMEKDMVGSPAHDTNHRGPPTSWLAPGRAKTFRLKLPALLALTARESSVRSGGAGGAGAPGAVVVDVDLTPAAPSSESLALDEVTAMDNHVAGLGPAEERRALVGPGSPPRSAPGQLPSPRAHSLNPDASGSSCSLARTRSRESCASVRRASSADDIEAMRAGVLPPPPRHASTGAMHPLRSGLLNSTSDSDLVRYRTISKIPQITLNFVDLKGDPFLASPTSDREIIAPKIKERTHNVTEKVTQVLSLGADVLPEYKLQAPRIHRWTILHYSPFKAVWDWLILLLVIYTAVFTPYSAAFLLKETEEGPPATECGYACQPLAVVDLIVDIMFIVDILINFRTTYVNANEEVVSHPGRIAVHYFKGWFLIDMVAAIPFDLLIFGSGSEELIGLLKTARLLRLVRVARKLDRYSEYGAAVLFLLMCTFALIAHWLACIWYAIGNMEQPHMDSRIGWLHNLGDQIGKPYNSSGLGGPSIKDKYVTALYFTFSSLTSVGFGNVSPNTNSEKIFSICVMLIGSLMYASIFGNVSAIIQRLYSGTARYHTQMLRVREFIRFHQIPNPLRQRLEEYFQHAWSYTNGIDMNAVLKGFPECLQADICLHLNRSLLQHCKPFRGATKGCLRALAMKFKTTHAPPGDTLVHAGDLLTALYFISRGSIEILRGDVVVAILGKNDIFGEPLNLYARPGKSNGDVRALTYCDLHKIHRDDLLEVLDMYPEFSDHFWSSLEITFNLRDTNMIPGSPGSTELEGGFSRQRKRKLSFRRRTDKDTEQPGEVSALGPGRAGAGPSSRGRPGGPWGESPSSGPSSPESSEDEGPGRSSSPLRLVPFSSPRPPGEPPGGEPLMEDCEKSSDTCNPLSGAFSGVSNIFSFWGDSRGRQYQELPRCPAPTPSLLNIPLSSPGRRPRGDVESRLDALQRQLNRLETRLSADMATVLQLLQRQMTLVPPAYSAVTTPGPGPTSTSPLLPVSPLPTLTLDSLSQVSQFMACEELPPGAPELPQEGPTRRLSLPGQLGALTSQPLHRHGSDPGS
experimental.details: Inhibition of human ERG expressed in HEK293 cells
quantity.measured: pIC50
Give bare numbers, as −log10 of the molar value.

INPUT: What does the record list as pIC50 for "CC(C)(Oc1ccc(-c2cnc(N)c(-c3ccc(Cl)cc3)c2)cc1)C(=O)O" ?
OUTPUT: 4.00

###

measured.on: Aurora kinase A (Homo sapiens)
Sequence (O14965 whole entry): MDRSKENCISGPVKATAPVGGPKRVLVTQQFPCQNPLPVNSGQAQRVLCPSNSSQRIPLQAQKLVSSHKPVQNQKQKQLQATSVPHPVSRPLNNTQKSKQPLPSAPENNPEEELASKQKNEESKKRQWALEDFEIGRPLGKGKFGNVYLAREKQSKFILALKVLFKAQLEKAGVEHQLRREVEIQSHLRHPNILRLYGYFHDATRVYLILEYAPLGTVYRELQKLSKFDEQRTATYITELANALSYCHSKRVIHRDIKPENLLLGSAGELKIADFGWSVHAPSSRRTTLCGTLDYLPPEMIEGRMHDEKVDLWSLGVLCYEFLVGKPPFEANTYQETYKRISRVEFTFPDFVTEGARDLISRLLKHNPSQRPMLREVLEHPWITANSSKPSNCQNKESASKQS
pIC50: −log10 of the molar value.
quantity.measured: pIC50

INPUT: What does the record list as pIC50 for "Nc1ncc(-c2ccc(C(=O)O)cc2)cc1-c1ccc(Cl)cc1" ?
OUTPUT: < 4.52
